assay: Plasma pharmacokinetics of tosedostat, CHR-79888 and paclitaxel (LC-MS/MS, noncompartmental); details: human, plasma, oral, T½, cohort 4: CHR-2797 180 mg, paclitaxel 175 mg m^−2; day 22, tosedostat in combination with paclitaxel; plasma; mean (±s.e.m.)
observed property: half-life (h)
One number for each entry, in h.

Ask: Return the recorded half-life value; entry: CC(C)C[C@@H](C(=O)N[C@H](C(=O)OC1CCCC1)c1ccccc1)[C@H](O)C(=O)NO [tosedostat]
Reply: 3.1

* * *

test: Plasma pharmacokinetics of tosedostat, CHR-79888 and paclitaxel (LC-MS/MS, noncompartmental); conditions: human, plasma, oral, 90 mg, Vz/F, cohort 2: CHR-2797 90 mg, paclitaxel 175 mg m^−2; day 21, tosedostat without paclitaxel; plasma; mean (±s.e.m.)
observed property: Vd/F (L)
One number for each entry, in L.

Ask: For the molecule CC(C)C[C@@H](C(=O)N[C@H](C(=O)OC1CCCC1)c1ccccc1)[C@H](O)C(=O)NO , give its measured Vd/F value.
Reply: 72
